Ref: PubChem BioAssay (NCI)

Tested on: HOP-62 NSCLC
Test: NCI-60 one-dose screen, 48 h (100 = growth as untreated, 0 = no growth, -100 = all killed)
Details: 10 µM
This is part of a sample that, as a whole, favours compounds with a hit. Of some 83,000 tested, about 20% had one in any assay. Active and inactive are the calls of the source. Rule for the calls: active = growth percent below 10; inactive = the rest.
quantity: growth

Known growth results, listed for orientation:
compound	growth
COc1cc(OC)c(/C=C/C(=O)c2nc3ccccc3n2Cc2ccc(F)cc2)c(OC)c1	58.9% (inactive)
CC12OOC(C)(OO1)C2CCC(=O)NCCNc1ccnc2cc(Cl)ccc12 (stereo not given)	89.9% (inactive)
CC12OOC(C)(OO1)C2CCC(=O)NCCCNc1ccnc2cc(Cl)ccc12 (stereo not given)	95.1% (inactive)
CC[C@]12C=CCN3CC[C@@]4(c5ccc(OC)cc5N(C)[C@H]4[C@@](O)(C(=O)OC)[C@@H]1OC(=O)CCC[P+](C1CCCCC1)(C1CCCCC1)C1CCCCC1)[C@@H]32	4.26% (active)
C#CCCCN(CCNc1ccnc2cc(Cl)ccc12)C(=O)CCC(=O)O[C@@H]1O[C@@H]2OC3(C)CC[C@H]4[C@H](C)CC[C@@H]([C@H]1C)[C@@]24OO3	58.9% (inactive)

IN: // lookup growth for `COC(=O)c1ccc(-n2cc(CCCN(CCNc3ccnc4cc(Cl)ccc34)C(=O)CCC(=O)O[C@@H]3O[C@@H]4OC5(C)CC[C@H]6[C@H](C)CC[C@@H]([C@H]3C)[C@@]46OO5)nn2)cc1`
OUT: 64.5% (inactive)

IN: // lookup growth for `C[C@H]1[C@@H](Oc2ccc(-c3cn(-c4ccnc5cc(Cl)ccc45)nn3)cc2)O[C@@H]2OC3(C)CC[C@H]4[C@H](C)CC[C@@H]1[C@@]24OO3`
OUT: 46.3% (inactive)

IN: // lookup growth for CCOC(=O)C1=C(Nc2ccccc2)C(=O)OC12C(=O)Nc1ccccc12 (stereo not given)
OUT: 97.6% (inactive)

IN: // lookup growth for `C[C@H]1[C@H](OC(=O)CCC(=O)N(CCCc2cn(-c3ccc([N+](=O)[O-])cc3)nn2)CCNc2ccnc3cc(Cl)ccc23)O[C@@H]2OC3(C)CC[C@H]4[C@H](C)CC[C@@H]1[C@@]24OO3`
OUT: 69.4% (inactive)

IN: // lookup growth for `O=C(/C=C/c1cccc(Br)c1)c1nc2ccccc2n1Cc1ccc(Br)cc1`
OUT: -42% (active)

IN: // lookup growth for `O=C(/C=C/c1ccc(Cl)cc1)c1nc2ccccc2n1Cc1ccc(Br)cc1`
OUT: 65.5% (inactive)

IN: // lookup growth for `COc1ccc(OC)c(/C=C/C(=O)c2nc3ccccc3n2Cc2ccc(F)cc2)c1`
OUT: -40.4% (active)

IN: // lookup growth for `CC[C@]12C=CCN3CC[C@@]4(c5ccc(OC)cc5N(C)[C@H]4[C@@](O)(C(=O)OC)[C@@H]1OC(=O)CCCC[P+](C1CCCCC1)(C1CCCCC1)C1CCCCC1)[C@@H]32`
OUT: 9.52% (active)

IN: // lookup growth for `C#CC[Se]C(=O)c1ccc(C(=O)[Se]CC#C)s1`
OUT: 29.8% (inactive)

IN: // lookup growth for `O=C(/C=C/c1ccco1)c1nc2ccccc2n1Cc1ccc(Br)cc1`
OUT: 57% (inactive)
